# Experiment: Reduction of oxidized coenzyme Q10 by amino acid in Span 80/glycerin/Tween 80/MCT, HPLC proportion of reduced coenzyme Q10
# Measurement context: 6 equivalents amino acid, Span 80, glycerin, Tween 80, MCT, 80° C., 16 hours, nitrogen atmosphere
Assay endpoint: Comparative Example 3: proportion of reduced coenzyme Q10 (%)
Please give a number only; it is taken to be in %.

Consider the worked cases shown below.
Compound: C[C@H](N)C(=O)O [Alanine]
Value reported: 0
--
Compound: CC(C)[C@H](N)C(=O)O [Valine]
Value reported: 0
--
Compound: NCC(=O)O [Glycine]
Value reported: 0

# context switch: different compound, same Comparative Example 3: proportion of reduced coenzyme Q10
Ask | Read the entry CC[C@H](C)[C@H](N)C(=O)O [Isoleucine] and write its reported Comparative Example 3: proportion of reduced coenzyme Q10.
Reply | 1
